- assay overview: chemical genetic growth profiling, strain panel (AID 1159580);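 also: tested at 20 µM; growth read once vehicle control cultures reached saturation at 30 °C; 1 = growth at the plate median or of vehicle wells; lower values mean less growth of the strain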
- cond: S. cerevisiae deletion strains, growth OD, locus YPR106W, strain ISR1, active compounds read low
Out of some 5,500 compounds screened, about 2,000 (36%) were called active. About 18% were inconclusive and are not listed. The list shows a part of the results.
Threshold-based label: normalized growth under 0.9 gives 1, normalized growth not under 0.9 gives 0.

compound | assigned category
Cc1c(C)c(C)c(C(=O)c2ccc(N=Cc3cc(Cl)cc(Cl)c3O)cc2)c(C)c1C | 0
O=C(NOC(=O)c1ccccc1)c1ccccc1 | 1
CC(=O)c1ccc(Cl)c(N=Cc2cc(Br)cc(Br)c2O)c1 | 1
CSc1sc(C(=O)Sc2ccccc2)cc1S(=O)(=O)C(C)C | 0
Clc1ccc(CN2CCN(c3cccc4[nH]ccc34)CC2)cc1Cl | 0
O=C(Nc1ccc(F)cc1F)c1cc(Cl)c(-n2cccc2)c(Cl)c1 | 0
O=C(CSC1=NNC(c2ccccn2)S1)Nc1ccccc1 (stereo unspecified) | 0
COC(=O)c1sccc1NS(=O)(=O)c1cc(Cl)cc(Cl)c1 | 0
CC(C)(C)c1cc(C(=O)Nc2ccc3c(c2)OCO3)n(Cc2ccc(F)cc2)n1 | 0

The values you see were collected from PubChem BioAssay AID1159580.
